The following compounds are shown together with reported microsomal CLint at 1 uM values.
testDescription: Metabolic stability in human hepatic microsome
Format: in vitro ADME
details: microsomes, pH 7.4; human hepatic microsome, NADPH(+); read-out: CL NADPH(+)
Starred links: 1 amine or outer side, 2 acyl side, 3 side chain; linkers in the order of their positions; H or OH if unused. Positions of bridges follow the written chain, without caps; N, C: chain ends. Non-standard residues stand in square brackets, D forms with d. Residues, ends and D or L forms follow the SMILES beside them. *: point of attachment. NMeF = CN[C@@H](Cc1ccccc1)C(=O)O; NMeI = CC[C@H](C)[C@H](NC)C(=O)O; NMeβAla = CN(CCC(=O)[*:2])[*:1]; NMeL = CN[C@@H](CC(C)C)C(=O)O; NMeV = CN[C@H](C(=O)O)C(C)C; NMeA = CN[C@@H](C)C(=O)O; Piperidide = C1CCN(*)CC1; Aze = O=C(O)[C@@H]1CCN1; Sar = CNCC(=O)O
observedProperty: microsomal CLint at 1 uM (µL/min/mg)

compound: C=C1CCC(=O)N[C@@H](CC(C)C)C(=O)N2CCC[C@H]2C(=O)N(C)[C@@H](C(C)C)C(=O)N[C@@H](Cc2ccccc2)C(=O)N(C)[C@@H](Cc2ccccc2)C(=O)N(C)[C@@H](CC(C)C)C(=O)N[C@@H](C)C(=O)N(C)[C@@H]([C@@H](C)CC)C(=O)N[C@H](C(=O)N2CCCCC2)Cc2ccc1cc2
observedProperty: microsomal CLint at 1 uM
readoutUnits: µL/min/mg
numericReadout: 331
--
compound: CC[C@H](C)[C@@H]1NC(=O)[C@H](CC(C)C)N(C)C(=O)[C@H](Cc2ccccc2)N(C)C(=O)CN(C)C(=O)[C@H](C)N(C)C(=O)[C@H](Cc2ccccc2)N(C)C(=O)[C@H](C)N(C)C(=O)[C@H]([C@@H](C)O)NC(=O)[C@H](C(C)C)N(C)C(=O)CCN(C)C(=O)C[C@@H](C(=O)N2CCCCC2)NC1=O [DP-516] ([NMeβAla][NMeV]T[NMeA][NMeF][NMeA][Sar][NMeF][NMeL]ID-Piperidide; lactam N-11)
observedProperty: microsomal CLint at 1 uM
readoutUnits: µL/min/mg
numericReadout: 19
--
compound: CC[C@H](C)[C@H]1C(=O)NCC(=O)N2CC[C@H]2C(=O)N[C@@H]([C@@H](C)O)C(=O)N2CCC[C@H]2C(=O)N[C@@H](Cc2ccccc2)C(=O)N[C@H](C(=O)N2CCCCC2)CC(=O)N(C)[C@@H](C)C(=O)N[C@@H](Cc2ccccc2)C(=O)N(C)[C@@H](CC(C)C)C(=O)N[C@@H](CC(C)C)C(=O)N1C [DP-556] ([NMeA]F[NMeL]L[NMeI]G[Aze]TPFD-Piperidide; lactam N-11)
observedProperty: microsomal CLint at 1 uM
readoutUnits: µL/min/mg
numericReadout: 65

* * *

testDescription: PAMPA (parallel artificial membrane permeability assay)
Format: in vitro ADME
details: PAMPA; membrane permeation rate (Pe); 50 mM MOPSO buffer pH 6.5 with 5.0% glycocholic acid, 37° C., 18 hours; read-out: iPAMPA Pe
Starred links: 1 amine or outer side, 2 acyl side, 3 side chain; linkers in the order of their positions; H or OH if unused. Positions of bridges follow the written chain, without caps; N, C: chain ends. Non-standard residues stand in square brackets, D forms with d. Residues, ends and D or L forms follow the SMILES beside them. *: point of attachment. Phe(4-(CH2)5CO) = O=C([C@H](Cc1ccc(CCCCCC(=O)[*:3])cc1)N[*:1])[*:2]; NMeF = CN[C@@H](Cc1ccccc1)C(=O)O; NMeI = CC[C@H](C)[C@H](NC)C(=O)O; NMeβAla = CN(CCC(=O)[*:2])[*:1]; NMeL = CN[C@@H](CC(C)C)C(=O)O; NMeV = CN[C@H](C(=O)O)C(C)C; NMeA = CN[C@@H](C)C(=O)O; Piperidide = C1CCN(*)CC1; dNMeA = CN[C@H](C)C(=O)O; β3hA = C[C@H](N)CC(=O)O; Sar = CNCC(=O)O; tBu = CC(C)(C)*
observedProperty: Papp at 18 hours, 50 µM (×10⁻⁶ cm/s)

compound: CC(C)C[C@@H]1NC(=O)[C@H]([C@@H](C)O)NC(=O)[C@H](CC(C)C)N(C)C(=O)CN(C)C(=O)[C@H](Cc2ccccc2)N(C)C(=O)[C@H](C(C)C)NC(=O)C[C@@H](C(=O)N2CCCCC2)NC1=O [DP-720] (V[NMeF][Sar][NMeL]TLD-Piperidide; lactam N-7)
observedProperty: Papp at 18 hours, 50 µM
numericReadout: 16

compound: CC(C)C[C@H]1C(=O)N[C@@H](Cc2ccccc2)C(=O)N(C)[C@@H](C)C(=O)N(C)[C@@H](C)C(=O)N[C@@H]([C@@H](C)O)C(=O)N(C)CC(=O)N(C)[C@@H](Cc2ccccc2)C(=O)N[C@H](C(=O)N(C)[C@@H](Cc2ccccc2)C(=O)N[C@@H](C)C(=O)N2CCCCC2)CC(=O)N(C)[C@H](C)C(=O)N(C)[C@@H](C)C(=O)N[C@@H](C)C(=O)N1C [DP-363] ([dNMeA][NMeA]A[NMeL]F[NMeA][NMeA]T[Sar][NMeF]D[NMeF]A-Piperidide; lactam N-11)
observedProperty: Papp at 18 hours, 50 µM
numericReadout: 5

compound: CC[C@H](C)[C@@H]1NC(=O)[C@H](CC(C)C)N(C)C(=O)[C@H](CC(C)C)N(C)C(=O)[C@@H](C(C)C)NC(=O)C[C@H](C)NC(=O)[C@H](CC(C)C)N(C)C(=O)[C@H](C)N(C)C(=O)[C@H]([C@@H](C)O)NC(=O)[C@H](CC(C)C)N(C)C(=O)[C@H](C)N(C)C1=O [DP-813] (cyclo(I[NMeA][NMeL]T[NMeA][NMeL][β3hA][dV][NMeL][NMeL]))
observedProperty: Papp at 18 hours, 50 µM
numericReadout: 30

compound: CC(C)C[C@H]1C(=O)N(C)[C@@H](Cc2ccccc2)C(=O)N[C@H](C(=O)N2CCCCC2)CC(=O)N(C)[C@H](C)C(=O)N[C@@H]([C@@H](C)O)C(=O)N(C)[C@@H](C)C(=O)N(C)[C@@H](Cc2ccccc2)C(=O)N[C@@H](COC(C)(C)C)C(=O)NCC(=O)N1C [DP-270] ([dNMeA]T[NMeA][NMeF]S(tBu)G[NMeL][NMeF]D-Piperidide; lactam N-9)
observedProperty: Papp at 18 hours, 50 µM
numericReadout: 22

compound: CC(C)C[C@@H]1NC(=O)[C@H](CC(C)C)N(C)C(=O)[C@H](C)N(C)C(=O)C[C@@H](C(=O)N(C)[C@@H](Cc2ccccc2)C(=O)N[C@@H](C)C(=O)N2CCCCC2)NC(=O)[C@H](CC(C)C)N(C)C(=O)[C@H](Cc2ccccc2)NC(=O)[C@H](Cc2ccccc2)N(C)C(=O)[C@H](C)NC(=O)[C@H]([C@@H](C)O)NC(=O)[C@H](CC(C)C)N(C)C1=O [DP-350] ([NMeA][NMeL]L[NMeL]TA[NMeF]F[NMeL]D[NMeF]A-Piperidide; lactam N-10)
observedProperty: Papp at 18 hours, 50 µM
numericReadout: 2

compound: CC(C)C[C@@H]1NC(=O)[C@H](C)NC(=O)[C@H]([C@@H](C)O)NC(=O)[C@H](CC(C)C)NC(=O)[C@H](CC(C)C)NC(=O)[C@H](C(C)C)NC(=O)CCN(C)C(=O)C[C@@H](C(=O)N2CCCCC2)NC(=O)[C@H](CC(C)C)NC(=O)[C@H](Cc2ccccc2)NC(=O)[C@H](CC(C)C)NC1=O [DP-514] ([NMeβAla]VLLTALLFLD-Piperidide; lactam N-11)
observedProperty: Papp at 18 hours, 50 µM
numericReadout: 6.8

compound: CC(C)C[C@H]1C(=O)N[C@H](C(=O)N2CCCCC2)CC(=O)N(C)[C@H](C)C(=O)N(C)[C@@H](CC(C)C)C(=O)N[C@@H]([C@@H](C)O)C(=O)N(C)CC(=O)N[C@@H](COC(C)(C)C)C(=O)N1C [DP-536] ([dNMeA][NMeL]T[Sar]S(tBu)[NMeL]D-Piperidide; lactam N-7)
observedProperty: Papp at 18 hours, 50 µM
numericReadout: 9.9

compound: CC(C)C[C@@H]1NC(=O)[C@H](Cc2ccccc2)N(C)C(=O)[C@H](C)NC(=O)[C@H](C)N(C)C(=O)[C@H]([C@@H](C)O)NC(=O)[C@H](CC(C)C)N(C)C(=O)[C@H](C)N(C)C(=O)C[C@@H](C(=O)N2CCCCC2)NC(=O)[C@H](CC(C)C)N(C)C(=O)[C@H](Cc2ccccc2)N(C)C(=O)[C@H](CC(C)C)N(C)C1=O [DP-156] ([NMeA][NMeL]T[NMeA]A[NMeF]L[NMeL][NMeF][NMeL]D-Piperidide; lactam N-11)
observedProperty: Papp at 18 hours, 50 µM
numericReadout: 24

compound: CC[C@H](C)[C@H]1C(=O)N[C@H](C(=O)N2CCCCC2)Cc2ccc(cc2)CCCCCC(=O)N[C@@H](CC(C)C)C(=O)N2CCC[C@H]2C(=O)N(C)[C@@H](C(C)C)C(=O)N[C@@H](Cc2ccccc2)C(=O)N(C)[C@@H](Cc2ccccc2)C(=O)N(C)[C@@H](CC(C)C)C(=O)N[C@@H](C)C(=O)N1C [DP-871] (LP[NMeV]F[NMeF][NMeL]A[NMeI][Phe(4-(CH2)5CO)]-Piperidide; lactam N-9)
observedProperty: Papp at 18 hours, 50 µM
numericReadout: 1.2

compound: CC(C)C[C@H]1C(=O)NCC(=O)N(C)[C@@H](C(C)C)C(=O)N[C@@H]([C@@H](C)O)C(=O)N[C@@H](Cc2ccccc2)C(=O)N[C@H](C(=O)N(C)[C@@H](Cc2ccccc2)C(=O)N(C)[C@@H](Cc2ccccc2)C(=O)N[C@@H](C)C(=O)N2CCCCC2)CC(=O)N(C)CCC(=O)N(C)[C@@H](C(C)C)C(=O)N[C@@H](C(C)C)C(=O)N(C)[C@@H](Cc2ccccc2)C(=O)N1C [DP-390] ([NMeβAla][NMeV]V[NMeF][NMeL]G[NMeV]TFD[NMeF][NMeF]A-Piperidide; lactam N-10)
observedProperty: Papp at 18 hours, 50 µM
numericReadout: 3.5
